# Tested on: DeltatarO mutant
# Protocol Notes: S. aureus survival, RN4220 and DeltatarO strains – OD600, teichoic acid synthesis inhibitors, primary screen (AID 463173)
# Condition Parameters: S. aureus RN4220 wild type/DeltatarO growth, OD600, 18 h, screened at 18.75 µg/mL (by protocol)
Screen size: about 52,000 compounds; about 4,300 (8.3%) were called active. No stated cut-off is given here; in the data, active means survival mostly below about 52% (no sharp cut-off); inactive means mostly above about 56%. For the sample, actives were picked, then their nearest neighbours and some compounds at random.
In this exercise, the only acceptable responses are T for active, F for inactive

Query: # outcome recorded in this test, key = `Cc1nc2sccn2c1-c1csc(Nc2cccc(Cl)c2C)n1`
Response: T

Query: Can you look up the reported call for `Cc1ccc(Cn2c(SCc3ccc(C(=O)NC4CCCCC4)cc3)nc3ccncc32)cc1` for me?
Response: F

Query: Recorded call for `Cc1ccc(C(=O)c2cn(Cc3ccccc3F)c3cc4c(cc3c2=O)OCCO4)cc1` ?
Response: F

Query: Could you please tell me the result logged for `CCc1ccc(-n2c(=O)c3c4c(sc3n(Cc3ccc(C)cc3)c2=O)CCC4)cc1` in this assay?
Response: F
